# test.summary: in vitro
# experimental.setup: human, hela cells, % viability
Kindly state viability at 28.5 h, 10 µM for each of the entries shown.
Numbers only, in %.

compound	viability at 28.5 h, 10 µM / %
O=C(NC(S(=O)O)C(F)(F)F)OCc1ccccc1 (stereo not drawn)	87
COc1ccc(F)cc1S(=O)(=O)N1CCCN(S(=O)(=O)c2cc(F)ccc2OC)CC1	93.5

Read the next record carefully.
Supply reported viability at 28.5 h, 10 µM belonging to this compound: NC(=O)CSc1nc(NCc2ccccc2)nc(N2CCOCC2)n1
93.3

---

# test.summary: in vitro
# experimental.setup: human, hela cells, % viability
I'd be grateful if you could share measured viability at 28.5 h, 10 µM for these entries.
Give bare numbers, in %.

// below: answered molecules
molecule	result
COc1ccc(N2CCN(CC(=O)Nc3ccc(Cl)cc3C(=O)c3ccccc3)CC2)cc1	90.7
Cn1ccnc1C(NC(=O)N1CCOc2ccc(Cl)cc2C1)C1CC1 (stereo not drawn)	91

# return recorded viability at 28.5 h, 10 µM for entry CCOC(=O)c1csc(C2CCCN2C(=O)c2cc(SC)ccc2Cl)n1 (stereo not drawn)
88
